assay.comment: in vitro
setup.conditions: rat, gh3-tre-luc cells, AC50 (uM) modified / 1000, Tox21_110001=Tox21_112863; viability, 1 nM T3 present, 24 h
measurement.kind: CC50 at 24 h

Give its CC50 at 24 h value. Item: `COC1=CC=C2[C@H]3Cc4ccc(OC)c5c4[C@@]2(CCN3C)[C@H]1O5`
> 90 µM

----------
assay.comment: in vitro
setup.conditions: rat, gh3-tre-luc cells, AC50 (uM) modified / 1000, Tox21_110001=Tox21_110485; viability, 1 nM T3 present, 24 h
measurement.kind: CC50 at 24 h

Tell me the measured CC50 at 24 h of CC(=O)O[C@H]1CC[C@@]2(C)C(=CC[C@@H]3[C@@H]2CC[C@]2(C)C(=O)CC[C@@H]32)C1 [Dehydroepiandrosterone acetate] , please.
> 20 µM
